- System: SK-OV-3 ovarian
- TEST_SUMMARY: NCI-60 one-dose screen, 48 h (100 = growth as untreated, 0 = no growth, -100 = all killed)
- REPORTED_CONDITIONS: 10 µM unless noted
This is part of a sample that, as a whole, favours compounds with a hit. Of some 83,000 tested, about 20% had one in any assay.
RECORDED_ENDPOINT: growth (%)
State just the number; it will be interpreted in %.

Cn1ncc(CC(=O)O)c1-n1nnc2cc(Cl)ccc2c1=O    111

Now, please, on to the next compound.
Data point: `Cc1nn(-c2ccccc2)c(Oc2ccccc2)c1/C=N/NC(=O)Cn1c(=O)sc2ccccc21` ; growth = 61
